Data provenance: patent US20090004214A1

target: T1, HLA-DR15 molecule (DRB1*1501) (human); assay: competitive ELISA, tracer A3 152-166
T1 construct: HLA class II heterodimer
Collected pIC50 values appear next to each entry.
Scale: negative log10 of molar concentration, which is what pIC50 denotes.

// below: answered binders
{"columns": ["Binder", "pIC50"],
 "data": [
  ["LTLGEFLKLDRERAK (synthetic 15-mer) [survivin peptide 96-110]", 6.31],
  ["PAWQPFLKDHRISTF (synthetic 15-mer) [survivin peptide 8-22]", 5.28],
  ["MGAPTLPPAWQPFLK (synthetic 15-mer) [survivin peptide 1-15]", 4.10]
]}

Q: # get_value(readout='pIC50', item= CAFLSVKKQFEELTL (synthetic 15-mer) [survivin peptide 84-98] )
Ans: 6.24
